Values from patent US20220411501A1

subject of test: T1, CD117 (c-Kit, stem cell factor receptor) on HEL or TF1 human erythroleukemia cells (human, UniProt P10721 26-976)
T1 construct: whole, on cells
method summary: flow cytometry on HEL cells; 0.1 µl/2.10^5 cells
readout label: % labelled HEL cells (%)

INSERT INTO assay_data (binder, meas_value) VALUES
  ('ch36-05 chimeric monoclonal antibody (antibody, human IgG1, kappa, V domains shown, Murine VH + human IgG1 Fc; murine VL + human Kappa; also called chR036-05; chR036.05) VH: QVQLQQSGAELVKPGAPVKLSCKASGYTFTRYWMNWVKQRPGRGLEWIGRIDPSDSEIHYNQNFKDKATLTVDKSSSTAYIQLSSLTSEDSAVYYCARDYGSDYYAMDYWGQGTSVTVSS VL: QIVLTQSPAIMSASLGEEITLTCSASSSVSYMHWYQQKSGTSPKLLIYSTSNLTSGVPSRFSGSGSGTFYSLTISSVEAEDAADYYCHQWSSYPFGGGTKLEIKR', 43);
